Data provenance: patent US20240166609A1

Target or system K. pneumoniae ATCC13883: recorded MIC listed per item.
Form entry: value (µg/mL) — number only.

Example compounds with recorded MIC:
In [3]: df
Out[3]:
                                   compound  measured_endpoint  units  reported_result
0  C[C@H](O)c1nccn1CC#Cc1ccc(-c2ccc(C3CC(NCC(=O)O)C3)cc2)cc1 (stereo partly drawn)                MIC  µg/mL                4
1  C[C@H](O)c1nccn1[C@H](C#Cc1ccc(-c2ccc(OC[C@@H](N)CO)cc2)cc1)CO                MIC  µg/mL               16

Inquiry: Identify the measured MIC of C[C@H](O)c1nccn1[C@@H](C#Cc1ccc(-c2ccc(C3CC(NCCC#N)C3)cc2)cc1)CO (stereo partly drawn) for K. pneumoniae ATCC13883.
Reply text: 0.5

Inquiry: Now the same for COCC(N)COc1ccc(-c2ccc(C#C[C@@H](CO)n3ccnc3[C@H](C)O)cc2)cc1 (mixture of isomers)
Reply text: 4

Inquiry: Now the same for C[C@H](O)c1nccn1CC#Cc1ccc(-c2ccc(C3CN(C(=O)CO)C3)cc2)cc1
Reply text: 1

Inquiry: Now the same for C[C@H](O)c1nccn1[C@@H](C#Cc1ccc(-c2ccc(C3CC(O)C3)cc2)cc1)CO (stereo partly drawn)
Reply text: 0.5

Inquiry: Now the same for C[C@H](O)c1nccn1[C@@H](C#Cc1ccc(-c2ccc(O[C@@H]3C[C@H]3N)cc2)cc1)CO (racemic)
Reply text: 0.5

* * *

Molecular target: E. coli LpxC (Escherichia coli, UniProt P0A725)
Sequence (P0A725 1-305): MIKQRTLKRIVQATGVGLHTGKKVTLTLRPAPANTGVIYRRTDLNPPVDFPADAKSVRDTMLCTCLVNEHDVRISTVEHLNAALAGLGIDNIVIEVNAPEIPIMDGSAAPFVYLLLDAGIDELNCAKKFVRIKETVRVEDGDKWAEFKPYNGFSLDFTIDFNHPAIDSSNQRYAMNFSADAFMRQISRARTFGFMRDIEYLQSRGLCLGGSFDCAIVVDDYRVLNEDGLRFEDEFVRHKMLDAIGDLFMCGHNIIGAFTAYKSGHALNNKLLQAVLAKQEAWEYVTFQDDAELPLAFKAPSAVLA
MEASURED ENDPOINT: pIC50
Note on units: pIC50 is unitless, being -log10 of a concentration expressed in mol/L.

Example compounds with recorded pIC50:
>>> df
                                   compound  reported_result
0  C[C@H](O)c1nccn1[C@@H](C#Cc1ccc(-c2ccc(OC(CO)CCO)cc2)cc1)CO (mixture of isomers) [Compound 22]             9.10
1  C[C@H](O)c1nccn1[C@@H](C#Cc1ccc(-c2ccc(OCC(C)(O)CO)cc2)cc1)CO (mixture of isomers) [Compound 16]             8.89
2  COCC(N)COc1ccc(-c2ccc(C#C[C@@H](CO)n3ccnc3[C@H](C)O)cc2)cc1 (mixture of isomers) [Compound 3]             8.82
3  C[C@H](O)c1nccn1[C@@H](C#Cc1ccc(-c2ccc(CO[C@@H]3C[C@H]3N)cc2)cc1)CO (racemic) [Compound 9]             8.74

Inquiry: Need pIC50, item C[C@H](O)c1nccn1[C@@H](C#Cc1ccc(-c2ccc(OCCC(O)CO)cc2)cc1)CO (mixture of isomers) [Compound 17]
Reply text: 9.30
